test system: KCCT873; assay: Cell viability assay (WST-8); type: cell-based; settings: 72 h
No end group written: not given here.

[
  {
    "biosequence": "KQLIRFLKRLDRNGGGKLLLKLLKKLLKLLKKK [IL4-LyticL]",
    "IC50 / µM": 4.6
  }
]

----------
system: U251; conditions: 72 h
pIC50: −log10 of the molar value. No end group written: not given here.
measure: pIC50

[
  {
    "biosequence": "KQLIRFLKRLDRNGGGKLLLKLLKKLLKLLKKK [IL4-LyticL]",
    "measure": "pIC50",
    "valueMeasured": 5.43
  }
]
